Assay: MELAS cybrid and Rieske KO viability enhancers – cell-based, MELAS cybrids, Rieske KO mouse fibroblasts, CellTiter-Glo, primary screen (AID 1508586); further: test concentration not given here
Conditions: MELAS cybrid survival, low glucose, CellTiter-Glo 48 h; hits give high values
Think of -0.06 as a floor: if z-score stands on it or above, it is True; beneath it, False.

Test whether the compound Cc1cnc(CN(C)C(=O)c2n[nH]c3ccccc23)[nH]1 records z-score of -0.06 or higher. True

Now the compound CCN(CC)CCNC(=O)c1c(C)[nH]c(C=C2C(=O)Nc3ccc(F)cc32)c1C False

Now the compound CCOC(=O)N1c2ccc(C(F)(F)F)cc2C(N(Cc2cc(C(F)(F)F)cc(C(F)(F)F)c2)C(=O)OC)CC1CC (configuration not stated) False

Now the compound O=C(O)c1ccc(B(O)O)cc1 True

Now the compound CN1CC(=O)N2C(c3ccc4c(c3)OCO4)c3[nH]c4ccccc4c3C[C@@H]2C1=O (some centres not stated) False

Now the compound C=C(NC(=O)C(=C)NC(=O)c1csc(C2=N[C@H]3c4csc(n4)[C@H]4NC(=O)c5csc(n5)[C@H]([C@@](C)(O)[C@@H](C)O)NC(=O)[C@H]5CSC(=N5)/C(=C\C)NC(=O)[C@H]([C@@H](C)O)NC(=O)c5csc(n5)[C@]3(CC2)NC(=O)[C@H](C)NC(=O)C(=C)NC(=O)[C@H](C)NC(=O)[C@H](C(C)CC)N[C@@H]2C=Cc3c([C@H](C)O)cc(nc3[C@H]2O)C(=O)O[C@@H]4C)n1)C(N)=O (some centres not stated) True

Data provenance: PubChem BioAssay
